Target: human ether-à-go-go-related gene (hERG) potassium channel (human, UniProt Q12809);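 further: peak tail current of the secondary pulse compared with the same well before compound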
Sequence (Q12809 whole entry, looked up): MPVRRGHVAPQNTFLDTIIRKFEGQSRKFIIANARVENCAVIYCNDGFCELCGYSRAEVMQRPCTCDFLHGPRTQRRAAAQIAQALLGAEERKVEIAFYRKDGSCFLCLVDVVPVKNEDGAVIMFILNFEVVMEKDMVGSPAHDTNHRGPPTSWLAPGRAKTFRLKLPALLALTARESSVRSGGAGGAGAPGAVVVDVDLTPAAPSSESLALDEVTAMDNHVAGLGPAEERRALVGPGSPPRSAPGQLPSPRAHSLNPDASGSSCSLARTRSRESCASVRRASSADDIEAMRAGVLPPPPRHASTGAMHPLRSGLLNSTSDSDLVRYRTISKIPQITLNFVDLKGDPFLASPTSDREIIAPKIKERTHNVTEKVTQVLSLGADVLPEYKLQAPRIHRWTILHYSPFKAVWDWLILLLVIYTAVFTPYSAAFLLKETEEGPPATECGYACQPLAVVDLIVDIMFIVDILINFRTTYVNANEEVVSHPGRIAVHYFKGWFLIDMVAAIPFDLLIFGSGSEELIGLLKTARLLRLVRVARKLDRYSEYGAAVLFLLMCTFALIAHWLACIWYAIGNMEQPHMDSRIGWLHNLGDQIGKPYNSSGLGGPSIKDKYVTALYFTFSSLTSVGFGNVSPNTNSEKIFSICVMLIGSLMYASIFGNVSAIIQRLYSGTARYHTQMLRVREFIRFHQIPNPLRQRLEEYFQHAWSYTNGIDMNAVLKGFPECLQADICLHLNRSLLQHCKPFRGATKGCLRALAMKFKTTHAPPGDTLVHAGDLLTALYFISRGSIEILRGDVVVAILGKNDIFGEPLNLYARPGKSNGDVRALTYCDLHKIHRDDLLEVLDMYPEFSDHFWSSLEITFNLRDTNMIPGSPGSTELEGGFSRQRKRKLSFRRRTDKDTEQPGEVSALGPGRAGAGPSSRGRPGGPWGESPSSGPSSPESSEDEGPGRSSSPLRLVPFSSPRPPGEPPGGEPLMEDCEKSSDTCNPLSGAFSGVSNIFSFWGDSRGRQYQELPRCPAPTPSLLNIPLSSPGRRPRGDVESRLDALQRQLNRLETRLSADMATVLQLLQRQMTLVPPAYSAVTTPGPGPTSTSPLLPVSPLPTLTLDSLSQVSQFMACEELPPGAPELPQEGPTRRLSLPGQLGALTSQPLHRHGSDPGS
Experiment: primary screen, population patch clamp on CHO cells stably expressing hERG; higher = less effect of the substance
In all, about 310,000 compounds went through this assay and about 14,000 (4.5%) showed an effect of 50% or more. The effect is printed as a negative number. Shown is part of a subset that was picked to be rich in strong results.
Observable: hERG current change (%, negative = inhibition) at 10uM (%)
Dear colleague, please return just the value in %, with no unit written.

COc1ccc(C(C(=O)NC2CCCCC2)N(C(=O)c2ccccn2)c2cccnc2)cc1 (centres unmarked)	22.4
COc1cccc(NC(=O)CSc2nnc(-c3ccoc3C)n2CC2CCCO2)c1 (centres unmarked)	-1.09
COc1ccc(-n2c(SCC(=O)Nc3ccccc3)nnc2-c2ccoc2C)cc1	-71.8
COc1cccc(-n2c(SCC(=O)NC(C)(C)C)nnc2-c2ccoc2C)c1	-64.5

Please find the next molecule below.
(Q) Field request: hERG current change (%, negative = inhibition) at 10uM | item: Cc1ccc(NC(=O)C2CC(=O)Nc3nncn32)cc1 (centres unmarked)
(A) 14.4
